Origin of values: ChEMBL document CHEMBL4130363

- MEASUREMENT TARGET: Type-1 angiotensin II receptor (Homo sapiens)
- ASSAY DETAILS: Antagonist activity at recombinant human AT1 receptor assessed as inhibition of agonist-induced […] reporter based assay
- Type: functional
The reader will find reported inhibition values listed item by item below.
Give a bare numeral; the unit % is implied.

Reference set, count: 2
CHEMICAL SMILES	READOUT	TEST VALUE
COc1cccc(C(=O)NCCCN(C)Cc2ccccc2)c1	inhibition	20
CN(CCCNC(=O)c1cccc(Br)c1)Cc1ccccc1	inhibition	7

Now take the following compound into account.
Using the record for CN(CCCNC(=O)c1ccc(Cl)cc1)CCc1ccccc1 , state its measured inhibition.
11
